The reported measurements were obtained from paper PMC12040169.

So I've got a bunch of molecules here, and I need their viability at 28.5 h, 10 µM values.
assay_details: in vitro
experimental_conditions: human, hela cells, % viability
Give just the number in %; leave the unit off.

Which viability at 28.5 h, 10 µM reading was recorded for the molecule O=C(O)CC1C(=O)NCCN1Cc1cccc(C(F)(F)F)c1 (stereo not drawn) [CBK269958] ? 91.1

Try this molecule too: Cc1cc(=O)oc2cc(NC(=S)N3CCN(C/C=C/c4ccccc4)CC3)ccc12 [CBK267045] 92

Try this molecule too: Nc1nc(Cc2ccc(F)cc2)no1 [CBK028717] 110

Try this molecule too: O=C(CCn1c(C(F)(F)F)cc2cccnc21)NCc1cccnc1 [CBK284865] 106

Try this molecule too: O=C(NCc1cccs1)C1(Cc2ccccc2-c2ccc(F)c(F)c2)CCOCC1 [CBK286417] 93.2

Try this molecule too: Nc1nc2c([nH]c(=O)n2[C@H]2C[C@@H](O)[C@@H](CO)O2)c(=O)[nH]1 [CBK201269] 94.7

Try this molecule too: CCCc1cc(O)nc(SCC(=O)Nc2cc3c(cc2C(C)=O)OCO3)n1 [CBK266144] 92

Try this molecule too: COCc1cc(C)nc2sc(C(N)=O)c(N)c12 [CBK018149] 93

Try this molecule too: O=C(O)c1ccc(-c2ccc(/C=C/c3nc(O)c([N+](=O)[O-])c(=O)[nH]3)o2)cc1Cl [CBK267354] 88.1
